Reference for the values: BindingDB's records for doi:10.1111/cbdd.12529

Kindly state pIC50 for each of the entries shown.
- System tested: DNA gyrase subunit B (Staphylococcus aureus, UniProt P0A0K8)
- Sequence (P0A0K8 whole entry): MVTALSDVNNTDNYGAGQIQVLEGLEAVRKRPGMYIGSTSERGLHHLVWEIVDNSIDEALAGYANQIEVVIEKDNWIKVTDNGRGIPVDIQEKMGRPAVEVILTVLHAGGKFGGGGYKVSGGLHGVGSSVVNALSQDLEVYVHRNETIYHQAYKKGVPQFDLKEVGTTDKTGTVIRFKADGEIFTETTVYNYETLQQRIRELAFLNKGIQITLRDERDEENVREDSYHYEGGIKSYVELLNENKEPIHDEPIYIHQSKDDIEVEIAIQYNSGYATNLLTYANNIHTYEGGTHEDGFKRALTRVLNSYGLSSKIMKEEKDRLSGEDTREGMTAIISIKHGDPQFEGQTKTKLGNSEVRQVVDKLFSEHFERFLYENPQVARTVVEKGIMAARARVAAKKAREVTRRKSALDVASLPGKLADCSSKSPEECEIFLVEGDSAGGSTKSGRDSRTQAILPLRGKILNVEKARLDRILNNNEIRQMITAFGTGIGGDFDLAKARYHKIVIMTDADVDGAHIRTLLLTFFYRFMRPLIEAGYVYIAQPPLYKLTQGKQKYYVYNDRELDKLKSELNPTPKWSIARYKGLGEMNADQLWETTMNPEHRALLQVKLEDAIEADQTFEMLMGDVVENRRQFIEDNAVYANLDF
- Method notes: Supercoiling Assay
- Assay conditions: pH 7.6; 25 °C
- Procedure: Supercoiling assay was performed using the commercially available kit (DNA gyrase supercoiling assay kit: SAS4001) from Inspiralis Pvt.limited, Norwich, UK. The assay was performed in 1.5 mL eppendorf tubes at room temperature. […] KOH (pH 7.6), 10 mM magnesium acetate, 10 mM DTT, 2 mM ATP, 500 mM potassium glutamate, 0.05 mg/mL albumin (BSA). While the standard compound novobiocin was the positive control, 4% DMSO was considered as negative control. […]
Would you please state pIC50, meaning minus log10 of the concentration in mol/L, as a bare number?

Exam item: Look up pIC50 for this compound: NNC(=O)CCC(=O)Nc1ccc(NC(=O)C2CCCO2)cc1 (configuration not stated)
Marked response: 4.64

Exam item: Try the compound `O=C(O)CCC(=O)Nc1ccc(NC(=O)c2ccc([N+](=O)[O-])s2)cc1`
Marked response: 4.57

Exam item: What do you have for `O=C(O)CCC(=O)Nc1ccc(NC(=O)c2cccs2)cc1` ?
Marked response: 4.90

Exam item: Then `Cc1ccc(C(=O)Nc2ccc(NC(=O)CCC(=O)NN)cc2)o1` ?
Marked response: 5.55

Exam item: And for `Cc1ccc(C(=O)Nc2ccc(NC(=O)CCC(=O)NN)cc2)s1` ?
Marked response: 5.21

Exam item: Now the same for `Cc1ccc(C(=O)Nc2ccc(NC(=O)CCC(=O)O)cc2)o1`
Marked response: 5.21

Exam item: # iterate: `O=C(O)CCC(=O)Nc1ccc(NC(=O)c2ccc[nH]2)cc1`
Marked response: 4.86

Exam item: Next record, please: O=C(O)CCC(=O)Nc1ccc(NC(=O)C2CCCO2)cc1 (configuration not stated)
Marked response: 5.21

Exam item: Now the compound `NNC(=O)CCC(=O)Nc1ccc(NC(=O)c2ccc([N+](=O)[O-])s2)cc1`
Marked response: 4.71

Exam item: And the next one, `NNC(=O)CCC(=O)Nc1ccc(NC(=O)c2ccc[nH]2)cc1` ?
Marked response: 4.37

Exam item: Another compound to look at: `NNC(=O)CCC(=O)Nc1ccc(NC(=O)c2ccco2)cc1`
Marked response: 4.62

Exam item: Also check `NNC(=O)CCC(=O)Nc1ccc(NC(=O)c2cccs2)cc1`
Marked response: 4.55

---

- System tested: DNA gyrase subunit B (Staphylococcus aureus, UniProt P0A0K8)
- Method notes: Supercoiling Assay
- Assay conditions: pH 7.6; 25 °C
Values of IC50 strictly less than 10 µM map to True, and values of at least 10 µM map to False.

Exam item: I wonder whether `O=C(O)CCC(=O)Nc1ccc(NC(=O)c2ccco2)cc1` has IC50 below 10 µM. Can you tell?
Marked response: True

Exam item: Then what about the molecule `O=C(O)CCC(=O)Nc1ccc(NC(=O)c2ccc([N+](=O)[O-])o2)cc1` ?
Marked response: False

Exam item: Follow-up entry: `NNC(=O)CCC(=O)Nc1ccc(NC(=O)c2ccc([N+](=O)[O-])o2)cc1`
Marked response: False

Exam item: Item: `O=C(O)CCC(=O)Nc1ccc(NC(=O)c2ccc([N+](=O)[O-])s2)cc1`
Marked response: True

Exam item: Try `Cc1ccc(C(=O)Nc2ccc(NC(=O)CCC(=O)O)cc2)s1` next.
Marked response: False
